Assay: Tissue half-life (t1/2) and Cmax in plasma, brain, kidney and liver after oral administration to CD-1 mice
Type: in vivo
Conditions: male, mouse, liver, 30 mg/kg oral gavage, read-out: Tissue Half-Lives, Liver (converted)
Listed below: half-life values for each entry.
Just the number please, in h, no unit attached.

Q: Quick check: half-life of C[C@@H]1[C@@H](N=C(Nc2ccc3c(=O)n(CCc4ccc(Cl)cc4)c(C4CCCNC4)nc3c2)N2CC(=O)N[C@@H](C)C2)C[C@H]2C[C@@H]1C2(C)C (some centres unmarked) ?
A: 17

Q: Quick check: half-life of COc1ccc(CCn2c(C#N)nc3cc(NC(=NC4C[C@H]5C[C@@H]([C@@H]4C)C5(C)C)N4CCN[C@@H](CF)C4)ccc3c2=O)c(F)c1 (some centres unmarked) ?
A: 4.3

====

Test: Tissue half-life (t1/2) and Cmax in plasma, brain, kidney and liver after oral administration to CD-1 mice
Assay type: in vivo
Conditions: male, mouse, plasma, 30 mg/kg oral gavage, read-out: Tissue Half-Lives, Plasma (converted)
Method: In vivo studies were conducted to observe the effect of the compounds of formula IA, IB, IIA, and IIIB in the subject animal. Male CD-1 mice, body weight of 20 grams at arrival, were used in these studies. Mice were given 30 mg/kg of compound in HPMC/Tween solution or suspension via oral gavage. Plasma, brain, and liver samples were collected at time periods of 1, 2, 4, 8, and 24 hours post dosing. One mouse was used per time point. Thus, a total of 5 mice were used for each compound tested. […]
value type: half-life (h)
Just the number please, in h, no unit attached.

Q: Quick check: half-life of C[C@@H]1[C@@H](N=C(Nc2ccc3c(=O)n(CCc4ccc(Cl)cc4)c(C4CCCNC4)nc3c2)N2CC(=O)N[C@@H](C)C2)C[C@H]2C[C@@H]1C2(C)C (some centres unmarked) [Example 241] ?
A: 21

Okay, next one:
Q: Quick check: half-life of COc1ccc(CCn2c(C#N)nc3cc(NC(=NC4C[C@H]5C[C@@H]([C@@H]4C)C5(C)C)N4CCN[C@@H](CF)C4)ccc3c2=O)c(F)c1 (some centres unmarked) [Example 256] ?
A: 5.4

====

Experiment: Tissue half-life (t1/2) and Cmax in plasma, brain, kidney and liver after oral administration to CD-1 mice
Type: in vivo
Details: male, mouse, brain, 30 mg/kg oral gavage, read-out: Tissue Half-Lives, Brain (converted)
Listed below: half-life values for each entry.
Just the number please, in h, no unit attached.

Q: Quick check: half-life of C[C@@H]1[C@@H](N=C(Nc2ccc3c(=O)n(CCc4ccc(Cl)cc4)c(C4CCCNC4)nc3c2)N2CC(=O)N[C@@H](C)C2)C[C@H]2C[C@@H]1C2(C)C (some centres unmarked) [Example 241] ?
A: 51

Continuing:
Q: Quick check: half-life of COc1ccc(CCn2c(C#N)nc3cc(NC(=NC4C[C@H]5C[C@@H]([C@@H]4C)C5(C)C)N4CCN[C@@H](CF)C4)ccc3c2=O)c(F)c1 (some centres unmarked) [Example 256] ?
A: 15
